Tested on: pathway closure
measurement-notes: Inhibition of pathway closure by chemicals, methylene blue dye score after microprotrusion array pretreatment
Assay type: in vivo, hairless guinea pigs
details: additive concentration 23%; 24 h; scale 0 to 5, 0.5 or greater significant
Measured Score (methylene blue) by item

>  <compound>
OCCCCC(O)CO (centres unmarked) [1,2,6-Hexanetriol]

>  <assay-system>
pathway closure

>  <Score (methylene blue)>
3.0 ± 0.5

$$$$
>  <compound>
O=C[C@@H](O)[C@H](O)[C@@H](O)[C@@H](O)CO [L-Glucose]

>  <assay-system>
pathway closure

>  <Score (methylene blue)>
3.5 ± 0.3

$$$$
>  <compound>
O=C[C@H](O)[C@@H](O)[C@H](O)[C@H](O)CO [D-Glucose]

>  <assay-system>
pathway closure

>  <Score (methylene blue)>
3.5 ± 0.5

$$$$
>  <compound>
OC[C@@H](O)[C@@H](O)[C@@H](O)CO [Adonitol]

>  <assay-system>
pathway closure

>  <Score (methylene blue)>
3.5 ± 0.3

$$$$
>  <compound>
OC[C@@H](O)[C@@H](O)[C@H](O)[C@@H](O)CO [Sorbitol]

>  <assay-system>
pathway closure

>  <Score (methylene blue)>
3.3 ± 0.3

$$$$

Each recorded value in this set is attributed to patent US7438926B2.
